Test system: HCC78 non-small cell lung cancer cells
Test: HCC78 cell proliferation assay
Format: cell-based
Settings: Homo sapiens, HCC78, 96 h; -log EC50 (M); 4 days, MTT; read-out: HCC-78 PROL pEC50 (converted)
test readout: EC50 (M)
I only need the number, in M, no unit after it.

EC50 of `CC(C)c1ccc(COc2ccc(-c3c(-c4ccncc4)nn4c3N(CCO)CC4)cc2)cc1` on HCC78 non-small cell lung cancer cells? 2.51e-06

EC50 of CC(C)c1ccc(COc2ccc(-c3c(-c4ccncc4)nn4c3NC(CO)C4)cc2)cc1 (centres unmarked) on HCC78 non-small cell lung cancer cells? 7.94e-07
